Listed molecules paired with reported melting point

molecule	melting point
CC(C)(C)[Si](C)(C)Oc1ccc(C(=O)Oc2ccc(C(=O)O)cn2)cc1C12CC3CC(CC(C3)C1)C2	188 to 190 °C
CCSc1ccccc1N1CCN([C@@H]2Cc3c(OC)ccc(OC)c3C[C@H]2O)CC1 (relative stereo)	171 to 173 °C
CC(Oc1ccc(Oc2ccc3ccc(Br)cc3n2)cc1)C(=O)NCC(=O)O (centres undefined)	157 to 159 °C
COC(=O)c1ccc2c(Br)n[nH]c2c1	186 to 189 °C
COc1ccc(CCN2CCC(=C3c4ccn(C)c4CCn4ncnc43)CC2)cc1	139 °C
CCOC(=O)C1=C(C)N2CCCC2=C(C(C)=O)C1c1cccc([N+](=O)[O-])c1 (centres undefined)	161 °C
CCCCCCCCCCC1COc2c(C(=O)OCC)sc(C(=O)OCC)c2O1 (centres undefined)	89 to 90 °C
CCCCCC(O)CCCC(CCCCCCC(=O)O)S(C)(=O)=O (centres undefined)	47 to 48 °C
COC(=O)c1cn(C)cn1	72.5 to 81 °C
CCOC(=O)c1cc(C)n(-c2ccc([N+](=O)[O-])cn2)c1-c1ccccc1	147 to 149 °C
C(=C1CCNCC1)c1ccc(C2=NCCO2)cc1	110 °C
C=CC(C)(C)C(O)C(Oc1ccc(Cl)cc1)n1ccnc1 (centres undefined)	88 to 90 °C
CCCCCCCCOc1ccc(C(=O)NNc2nc(NNC(=O)c3ccc(OCCCCCCCC)cc3O)nc(N(CCC)CCC)n2)c(O)c1	195 to 196 °C
COc1ccc2cc([C@H](C)C(=O)OCC(=O)N(C)CC(=O)OCCO[N+](=O)[O-])ccc2c1	71 to 73 °C
CCN(CC)c1ccc(C=C2Cc3ccccc3C2=O)c(C)c1	134 °C
CCOC(=O)C(=Cc1ccccc1)c1csc(N)n1	162 °C
COc1cccc(OCCO)c1-c1ccc(C[C@H](NC(=O)c2c(Cl)cccc2Cl)C(=O)O)cc1	158 to 159 °C
CN(C(=O)c1cccc(S(=O)(=O)N(C)c2ccc(S(C)=O)cc2)c1)c1ccc(Cl)cc1F (centres undefined)	104 to 106 °C
CC(C)(C)NCc1ccc(COc2cccc3c2CN(C2CCC(=O)NC2=O)C3=O)cc1 (centres undefined)	194 to 196 °C
